Experiment: Comparison of dye emission maxima and quenching
Format: physicochemical
Details: IRDye 800CW samples; PBS pH 7.4; excitation 770 nm
PROPERTY_NAME: Peak fluorescence emission intensity

MOLECULE	MEAS_VALUE
CC1(C)C(/C=C/C2=C(Oc3ccc(S(=O)(=O)[O-])cc3)C(=C/C=C3/N(CCCCS(=O)(=O)[O-])c4ccc(S(=O)(=O)[O-])cc4C3(C)C)/CCC2)=[N+](CCCCCC(=O)NCCCOCCOCCOCCCNC(=O)CCCCC[N+]2=C(/C=C/C3=C(c4ccccc4F)C(=C/C=C4/N(CCCS(=O)(=O)[O-])c5ccc(N(CCCS(=O)(=O)[O-])CCCS(=O)(=O)[O-])cc5C4(C)C)/CCC3)C(C)(C)c3c2ccc2cc(S(=O)(=O)[O-])ccc32)c2ccc(S(=O)(=O)[O-])cc21.[Na+].[Na+].[Na+].[Na+].[Na+].[Na+]	385983
CC1(C)C(/C=C/C2=C(Oc3ccc(S(=O)(=O)[O-])cc3)C(=C/C=C3/N(CCCCS(=O)(=O)[O-])c4ccc(S(=O)(=O)[O-])cc4C3(C)C)/CCC2)=[N+](CCCCCC(=O)NCCCOCCOCCOCCCN)c2ccc(S(=O)(=O)[O-])cc21.O=C(O)C(F)(F)F.[Na+].[Na+].[Na+]	1343900
CC1(C)C(/C=C/C2=C(Oc3ccc(S(=O)(=O)[O-])cc3)C(=C/C=C3/N(CCCCS(=O)(=O)[O-])c4ccc(S(=O)(=O)[O-])cc4C3(C)C)/CCC2)=[N+](CCCCCC(=O)NCCOCCOCCOCCOCCOCCOCCOCCOCCOCCOCCOCCNC(=O)CCCCC[N+]2=C(/C=C/C3=C(c4ccccc4F)C(=C/C=C4/N(CCCS(=O)(=O)[O-])c5ccc(N(CCCS(=O)(=O)[O-])CCCS(=O)(=O)[O-])cc5C4(C)C)/CCC3)C(C)(C)c3c2ccc2cc(S(=O)(=O)[O-])ccc32)c2ccc(S(=O)(=O)[O-])cc21.[Na+].[Na+].[Na+].[Na+].[Na+].[Na+]	438981
CC1(C)C(/C=C/C2=C(Oc3ccc(S(=O)(=O)[O-])cc3)C(=C/C=C3/N(CCCCS(=O)(=O)[O-])c4ccc(S(=O)(=O)[O-])cc4C3(C)C)/CCC2)=[N+](CCCCCC(=O)NCCOCCOCCOCCOCCOCCOCCOCCOCCOCCOCCOCCN)c2ccc(S(=O)(=O)[O-])cc21.O=C(O)C(F)(F)F.[Na+].[Na+].[Na+] [IRDye 800CW-PEG11-NH2]	1272820
CC1(C)C(/C=C/C2=C(Oc3ccc(S(=O)(=O)[O-])cc3)C(=C/C=C3/N(CCCCCC(=O)NCCC(=O)N4Cc5ccccc5C#Cc5ccccc54)c4ccc(S(=O)(=O)[O-])cc4C3(C)C)/CCC2)=[N+](CCCCS(=O)(=O)[O-])c2ccc(S(=O)(=O)[O-])cc21.[Na+].[Na+].[Na+]	1203780
CC1(C)C(/C=C/C2=C(Oc3ccc(S(=O)(=O)[O-])cc3)C(=C/C=C3/N(CCCCCC(=O)NCCOCCOCCOCCN=[N+]=[N-])c4ccc(S(=O)(=O)[O-])cc4C3(C)C)/CCC2)=[N+](CCCCS(=O)(=O)[O-])c2ccc(S(=O)(=O)[O-])cc21.[Na+].[Na+].[Na+]	1245060
CC1(C)C(/C=C/C2=C(Oc3ccc(S(=O)(=O)[O-])cc3)C(=C/C=C3/N(CCCCS(=O)(=O)[O-])c4ccc(S(=O)(=O)[O-])cc4C3(C)C)/CCC2)=[N+](CCCCCC(=O)NCCCCCCNC(=O)CCCCC[N+]2=C(/C=C/C3=C(c4ccccc4F)C(=C/C=C4/N(CCCS(=O)(=O)[O-])c5ccc(N(CCCS(=O)(=O)[O-])CCCS(=O)(=O)[O-])cc5C4(C)C)/CCC3)C(C)(C)c3c2ccc2cc(S(=O)(=O)[O-])ccc32)c2ccc(S(=O)(=O)[O-])cc21.[Na+].[Na+].[Na+].[Na+].[Na+].[Na+]	519267
